target: T1, recombinant human CD4 (catalogue number: 514-CD/CF, manufactured by R&D Systems) (human, UniProt P01730 26-390); test: SPR, Biacore T100; antibody captured on anti-human IgG chip, recombinant human CD4 flowed; 1:1 binding model
T1 construct: Bought protein (R&D Systems); also called recombinant CD4
Measured kon, listed per entry for reference.
Dear colleague, please return just the value in M⁻¹ s⁻¹, with no unit written.

Examples with their reported kon follow.
Input line: Entry anti-CD4 human antibody 6G5-1 (antibody, V domains shown) VH: QVQLQQWGAGLLKPSETLSLTCAVYGGSFSGYYWSWIRQPPGKGLEWIGEINHSGSTNYNPSLKSRVTISVDTSKNQFSLKLSSVTAADTAVYYCARVINWFDPWGQGTLVTVSS VL: DIQMTQSPSSVSASVGDRVTITCRASQDISSWLAWYQHKPGKAPKLLIYAASSLQSGVPSRFSGSGSGTDFTLTISSLQPEDFATYYCQQANSFPYTFGQGTKLEIKR has what kon?
Output line: 534000

Input line: Same thing, different binder: anti-CD4 humanized antibody HV4LV6 (antibody, V domains shown, Expressed from the humanized antibody expression vector pKANTEX93) VH: EVQLVESGGGLVQPGRSMRLSCAASGFTFSNYGMAWVRQAPGKGLEWVATISYDGSITYYRDSVKGRFTISRDNSKNTLYLQMNSLRAEDTATYYCTREEQYSSWYFDFWGQGILVTVSS VL: DIQLTQSPSSLSVSLGDRATITCRASQSVSISSHDLMQWYQQKPGKQPKLLIYDAFNLASGIPSRFSGSGSGTDFTLTISSVQPEDFATYYCQQSKDDPYTFGQGTKLEIK
Output line: 403000

# evaluate next
Input line: Entry anti-CD4 humanized antibody HV4LV0 (antibody, V domains shown, Expressed from the humanized antibody expression vector pKANTEX93) VH: EVQLVESGGGLVQPGRSMRLSCAASGFTFSNYGMAWVRQAPGKGLEWVATISYDGSITYYRDSVKGRFTISRDNSKNTLYLQMNSLRAEDTATYYCTREEQYSSWYFDFWGQGILVTVSS VL: DIQLTQSPSSLSASVGDRVTITCRASQSVSISSHDLMQWYQQKPGKAPKLLIYDAFNLASGVPSRFSGSGSGTDFTLTISSLQPEDFATYYCQQSKDDPYTFGQGTKLEIK has what kon?
Output line: 791000
